# Test system: HS 578T breast
# experimentSummary: NCI-60 one-dose screen, 48 h (100 = growth as untreated, 0 = no growth, -100 = all killed)
# runParameters: 10 µM unless noted
Compounds without any hit were thinned out: in the full panel of roughly 83,000, 20% have a hit.
Mark Not fulfilled for growth values under 10%, and Fulfilled for everything at or above.

I'd appreciate it if you could say whether "O=C(Cn1c(/C=C/c2ccccc2)nc2ccccc2c1=O)Nc1ccc(Cl)cc1" has growth at least equal to 10%.
Fulfilled

I'd appreciate it if you could say whether "O=C(NN1C(=O)/C(=C/C=C/c2ccc([N+](=O)[O-])o2)SC1=S)c1ccc(Cl)cc1" has growth at least equal to 10%.
Not fulfilled

I'd appreciate it if you could say whether "O=c1onc(-c2cc3ccccc3nc2Cl)n1-c1cccc2ccccc12" has growth at least equal to 10%.
Fulfilled

I'd appreciate it if you could say whether COc1ccc(CCC2c3c(cc4c(c3OC)OCO4)CCN2C)cc1 (stereo not given) has growth at least equal to 10%.
Fulfilled

I'd appreciate it if you could say whether "Cn1cc(-c2cc3nc(-c4c[nH]c5ccc(Br)cc45)cc(N)n3n2)c2ccccc21" has growth at least equal to 10%.
Not fulfilled

====

# Tested on: EKVX NSCLC
# experimentSummary: NCI-60 one-dose screen, 48 h
# runParameters: 10 µM unless noted
This is part of a sample that, as a whole, favours compounds with a hit. Of some 83,000 tested, about 20% had one in any assay. Active and inactive are the calls of the source. Rule for the calls: active = growth percent below 10; inactive = the rest.
Would you mind answering with one of these outcomes? active, inactive

Name the outcome recorded for CCS(=O)(=O)N1CCCC(C(=O)Nc2nc3ccc(NC(=O)c4ccc(F)c(OC)c4F)cc3s2)C1 (stereo not drawn) in the assay.
inactive

Name the outcome recorded for CC1(C)CC[C@]2(C(=O)O)CC[C@]3(C)C(=CCC4[C@@]5(C)C[C@@H](O)[C@@H]6OC(c7ccc(F)cc7)OC[C@@]6(C)C5CC[C@]43C)C2C1 (stereo partly drawn) in the assay.
inactive

Name the outcome recorded for "O=C(COc1ccc(NC(=O)Nc2ccc(Cl)c(Cl)c2)cc1)N=Nc1c(O)[nH]c2ccc(Br)cc12" in the assay.
active

Name the outcome recorded for "CN(C)c1ccnc(CNCCSC2(c3ccc(C(F)(F)F)cc3)c3ccccc3C=Cc3ccccc32)c1" in the assay.
active

Name the outcome recorded for CN(C)CCOc1ccc(C(=O)C2[C@H](c3ccc(Cl)cc3)[C@@H](c3ccccc3)NC23C(=O)Nc2ccccc23)cc1 (stereo partly drawn) in the assay.
inactive

Name the outcome recorded for "Cc1cc(=O)oc2cc(OCCCOc3ccc(/C=C/C(=O)Nc4ccccc4N)cc3)ccc12" in the assay.
inactive

Name the outcome recorded for COc1cc(C2CC(c3cc(OC)c(OC)c(OC)c3)=NN2c2ccccc2)ccc1OCc1ccc(C)cc1 (stereo not drawn) in the assay.
inactive

Name the outcome recorded for "COc1ccc(C(=O)/C=C/c2cccc(Br)c2)cc1S(N)(=O)=O" in the assay.
active

====

# System: OVCAR-5 ovarian
# experimentSummary: NCI-60 one-dose screen, 48 h (100 = growth as untreated, 0 = no growth, -100 = all killed)
# runParameters: 10 µM unless noted
About 83,000 compounds went through this panel and 20% of them were active in at least one assay; those are over-represented in the sample as a whole.
testReadout: growth (%)
Entry rule: numbers only, all in %.

Any idea what growth was measured for "CN(C)CCCNC(=O)c1cc(NC(=O)c2cc(NC(=O)c3ccc(/C=C/c4ccccc4)cc3)cn2C)cn1C" ?
105

Any idea what growth was measured for Cc1ccc(C2=NN(c3nc(-c4cc5ccccc5oc4=O)cs3)C(c3ccc(C)cc3)C2)cc1 (centres undefined) ?
126

Any idea what growth was measured for COc1ccc(NC(=O)[C@@H](N)Cc2ccccc2)cc1C(=O)Nc1cccc(C2CC(=O)c3c(cc(OC)c(OC)c3OC)O2)c1 (some centres undefined) ?
101

Any idea what growth was measured for "CN(C)c1ccnc(CNCCSC2(c3ccc(C(F)(F)F)cc3)c3ccccc3C=Cc3ccccc32)c1" ?
1.89

====

Exercise: state measured growth for each of the molecules provided.
# System: TK-10 renal
# experimentSummary: NCI-60 one-dose screen, 48 h (100 = growth as untreated, 0 = no growth, -100 = all killed)
# runParameters: 10 µM unless noted
This is part of a sample that, as a whole, favours compounds with a hit. Of some 83,000 tested, about 20% had one in any assay.
Entry rule: numbers only, all in %.

What value of growth on TK-10 renal does "N=C1N=C(SCc2nc3ccccc3[nH]2)NC(=O)/C1=C/c1ccc(Cl)cc1" have?
143

What value of growth on TK-10 renal does COc1c(F)ccc(C(=O)Nc2ccc3nc(NC(=O)C4CCCN(S(=O)(=O)c5ccc(Br)c(F)c5)C4)sc3c2)c1F (centres undefined) have?
122

What value of growth on TK-10 renal does "Cn1cc(-c2cc(N)n3nc(-c4c[nH]c5ccccc45)cc3n2)c2cccnc21" have?
92

What value of growth on TK-10 renal does "CC(=O)N1CCN(Cc2ccc3c(NNC(=O)c4cnccn4)nc4cc(F)ccc4n23)CC1" have?
30.3

What value of growth on TK-10 renal does "COc1ccc(-c2nc(SC(C)C)nc(NCCc3c[nH]c4ccccc34)c2C#N)cc1" have?
90.6

What value of growth on TK-10 renal does "COc1ccc(-c2nnc3ccc(N/N=C/c4ccc(O)cc4)nn23)cc1" have?
38.9

What value of growth on TK-10 renal does "CC(=O)Nc1ccc(-c2nc3cc(-c4ccc(O)cc4)ccc3n2C)cc1" have?
79

What value of growth on TK-10 renal does CC1=C(C(=O)c2ccccc2)C(c2cccc3ccccc23)n2c(nc3ccccc32)N1 (centres undefined) have?
83.8

What value of growth on TK-10 renal does "CCN(CC)CCOc1ccc(Nc2ncc3cc(-c4ccc(O)c(C#N)c4)c(=O)n(C)c3n2)cc1" have?
96.8

====

# Tested on: SK-OV-3 ovarian
# experimentSummary: NCI-60 one-dose screen, 48 h (100 = growth as untreated, 0 = no growth, -100 = all killed)
# runParameters: 10 µM unless noted
Compounds without any hit were thinned out: in the full panel of roughly 83,000, 20% have a hit.
Note that class boundaries on growth are low = under 50%, medium = from 50% up to 80%, high = 80% and over

Which bin should I file "COc1ccc2[nH]c(O)c(N=NC(=O)Cn3c(-c4ccccc4)nc4cc(C)ccc43)c2c1" under?
high

Which bin should I file CC12CC[C@@H]3[C@]4(C)COC(c5c(F)cccc5F)O[C@@H]4CC[C@@]3(C)[C@@H]1CC(C1=CCOC1=O)O2 (some centres undefined) under?
medium

Which bin should I file CC1=C(C(=O)c2ccccc2)C(c2cccc(Cl)c2Cl)n2c(nc3ccccc32)N1 (centres undefined) under?
low

Which bin should I file "O=C(Nc1ccc(C(F)(F)F)cc1)Nc1ccc2oc(=O)ccc2c1" under?
low

Which bin should I file C#CCOc1cc(N(CC)CC)ccc1C(C(=O)NC(C)(C)C)N(C(=O)C1CCc2cc(F)ccc2O1)c1ccc(F)cc1 (centres undefined) under?
medium

Which bin should I file "CN(C)CCn1c2ccccc2c2nc3cc4ccccc4cc3nc21" under?
low

Which bin should I file "C(=C\c1cc(/C=C/c2ccccc2)c2ccccc2n1)/c1ccccc1" under?
high

Which bin should I file "C#C[C@]1(O)CC[C@H]2[C@@H]3CC=C4c5sc(-c6ccc([N+](=O)[O-])cc6)nc5CC[C@]4(C)[C@H]3CC[C@@]21C" under?
medium

====

# Test system: T-47D breast
# experimentSummary: NCI-60 one-dose screen, 48 h (100 = growth as untreated, 0 = no growth, -100 = all killed)
# runParameters: 10 µM unless noted
About 83,000 compounds went through this panel and 20% of them were active in at least one assay; those are over-represented in the sample as a whole. Calls of active or inactive are those of the source. The calls were made as follows: active = growth percent below 10; inactive = the rest.
testReadout: growth

What value of growth on T-47D breast does "Cc1cc2nc3c4ccccc4n(CCCN(C)C)c3nc2cc1C" have?
-10.7% (active)

What value of growth on T-47D breast does "Cn1cc(-c2nnc(N)nc2-c2c[nH]c3ccccc23)c2cccnc21" have?
44.6% (inactive)

What value of growth on T-47D breast does "O=C(COc1ccc(NC(=O)Nc2ccccc2)cc1)N=Nc1c(O)[nH]c2ccc([N+](=O)[O-])cc12" have?
-43.7% (active)

What value of growth on T-47D breast does "COc1ccc(C(=O)/C=C/c2ccc(Oc3nc(Nc4ccc(F)cc4)nc(N(C)C)n3)c(OC)c2)cc1" have?
19.7% (inactive)

What value of growth on T-47D breast does COc1cc2c(c(OC)c1OC)C(=O)CC(c1cccc(NC(=O)c3cc(NC(=O)[C@H](CO)NC(=O)OC(C)(C)C)ccc3Cl)c1)O2 (stereo partly drawn) have?
13.5% (inactive)

What value of growth on T-47D breast does CCCCCCCS(=O)(=O)N1CCCC(C(=O)Nc2nc3ccc(NC(=O)c4ccc(F)c(OC)c4F)cc3s2)C1 (stereo not drawn) have?
41.9% (inactive)

What value of growth on T-47D breast does COc1c(F)ccc(C(=O)Nc2ccc3nc(NC(=O)C4CCCN(S(=O)(=O)c5ccc(C(F)(F)F)cc5)C4)sc3c2)c1F (stereo not drawn) have?
59.7% (inactive)

What value of growth on T-47D breast does "COc1ccc(-c2nc(SC(C)C)nc(NCCc3c[nH]c4ccccc34)c2C#N)cc1" have?
6.31% (active)
